Target: HIV-1 92TH021 envelope glycoprotein (Env) on pseudovirus (HIV-1)
Assay: cell-based or functional assay
Property label: IC50, pseudovirus neutralization (µg/mL)
Give the number; µg/mL is assumed, so skip it.

Binder: PGT-126 monoclonal antibody (antibody, V domains shown) VH: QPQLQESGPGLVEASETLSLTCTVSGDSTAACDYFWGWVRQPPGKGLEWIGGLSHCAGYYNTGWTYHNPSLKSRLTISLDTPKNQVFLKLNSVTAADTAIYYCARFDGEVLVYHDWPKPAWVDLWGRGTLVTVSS VL: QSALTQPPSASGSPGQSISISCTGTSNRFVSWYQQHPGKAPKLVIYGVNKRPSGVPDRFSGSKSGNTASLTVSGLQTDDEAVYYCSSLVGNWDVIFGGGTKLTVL
Result unit: µg/mL
IC50, pseudovirus neutralization: 0.115

Turning now to a further binder:
For the binder PGT-125 monoclonal antibody (antibody, V domains shown) VH: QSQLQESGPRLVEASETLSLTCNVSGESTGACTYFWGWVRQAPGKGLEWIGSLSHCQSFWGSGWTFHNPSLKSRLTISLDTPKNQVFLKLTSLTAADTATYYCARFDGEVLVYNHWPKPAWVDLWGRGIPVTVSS VL: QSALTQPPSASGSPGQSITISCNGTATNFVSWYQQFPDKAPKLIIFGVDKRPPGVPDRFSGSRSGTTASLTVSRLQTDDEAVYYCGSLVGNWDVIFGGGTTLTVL , what IC50, pseudovirus neutralization is on record?
0.0066
